System: OVCAR-5 ovarian
Experiment: NCI-60 one-dose screen, 48 h
Conditions: 10 µM unless noted
Compounds without any hit were thinned out: in the full panel of roughly 83,000, 20% have a hit. Activity calls are given as the source filed them. The calls were made as follows: active = growth percent below 10; inactive = the rest.
Possible outcomes: true (1) for active, false (0) for inactive

{"molecule": "CO[C@H](C(=O)N[C@@H](CCCCNC(=O)OCc1ccccc1)C(=O)OC(C)(C)C)[C@@H]1Cc2cc3cc(OC4CC(OC5CC(O)C(O)C(C)O5)C(O)C(C)O4)c(C)c(O)c3c(O)c2C(=O)[C@H]1OC1CC(OC2CC(OC3CC(C)(O)C(O)C(C)O3)C(O)C(C)O2)C(O)C(C)O1 (some centres not stated)", "class": "true (1)"}
{"molecule": "COC(=O)[C@H](C)NC(=O)[C@@H](OC)[C@@H]1Cc2cc3cc(OC4CC(OC5CC(O)C(O)C(C)O5)C(O)C(C)O4)c(C)c(O)c3c(O)c2C(=O)[C@H]1OC1CC(OC2CC(OC3CC(C)(O)C(O)C(C)O3)C(O)C(C)O2)C(O)C(C)O1 (some centres not stated)", "class": "false (0)"}

----------
System: NCI-H522 lung
Experiment: NCI-60 one-dose screen, 48 h
Conditions: 10 µM unless noted
This is part of a sample that, as a whole, favours compounds with a hit. Of some 83,000 tested, about 20% had one in any assay. Active and inactive are the calls of the source. How the source made its calls: active means growth percent below 10; inactive means the rest.
Possible outcomes: y = active, n = inactive

{"molecule": "CC(=O)C1=C(C)NC(SCc2nnc(-c3ccc(C)cc3)o2)=NC1c1ccc(F)cc1 (stereo not given)", "class": "n"}
{"molecule": "COc1ccc(OC)c(NC2=C(SCCc3ccccc3)C(=O)c3ccccc3C2=O)c1", "class": "n"}
{"molecule": "CCN1CCN(c2cc(C)nc(N(CCCNc3ccnc4cc(Cl)ccc34)Cc3cccs3)n2)CC1", "class": "y"}
{"molecule": "CNC(=O)c1cccc2cc(Oc3ccnc4cc(OCC5(N)CC5)c(OC)cc34)ccc12", "class": "n"}
{"molecule": "CNC(=O)c1cc(Oc2ccc(NC(=O)Nc3ccc(Cl)c(C(F)(F)F)c3)c(F)c2)ccn1", "class": "y"}

----------
System: NCI-H322M lung
Test: NCI-60 one-dose screen, 48 h (100 = growth as untreated, 0 = no growth, -100 = all killed)
Conditions: 10 µM unless noted
The panel holds about 83,000 compounds, 20% with a hit somewhere; the sample as a whole holds those more often.
// thresholds for growth classes: bottom bin (below 10%), middle bin (10% to below 50%), top bin (50% or more)

{"compound": "CSC1=C(N)C(=O)c2[nH]cc(CO)c2C1=N", "class": "bottom bin"}
{"compound": "N[C@@H]1CCCN(c2c(/C=C3\\SC(=O)NC3=O)cccc2-c2ccccc2)C1", "class": "top bin"}
{"compound": "Nc1ncnc2c1c(-c1cccc(OCc3ccccc3)c1)cn2C1CC(CN2CCC2)C1 (stereo not given)", "class": "middle bin"}
{"compound": "O=C1CC(c2ccc3c(c2)OCO3)c2ncn(-c3ccc(Cl)cc3)c2N1 (stereo not given)", "class": "top bin"}
{"compound": "C[C@@H](C[C@H](CCO)c1cc(C(F)(F)F)cc(C(F)(F)F)c1)c1ccc2ccccc2c1", "class": "top bin"}
{"compound": "COc1cc2ncnc(Oc3cccc(NC(=O)Nc4cc(C(C)(C)C(F)(F)F)on4)c3)c2cc1OC", "class": "bottom bin"}
{"compound": "NC[C@@](O)(c1ccc(Cl)cc1)c1ccc(-c2cn[nH]c2)cc1", "class": "middle bin"}
{"compound": "Cn1ncc(Cl)c1-c1cc(C(=O)N[C@H](CN)Cc2ccc(F)c(F)c2)oc1Cl", "class": "middle bin"}
{"compound": "CC(C)(C)CC(C)(C)Nc1c(-c2c(O)c3ccccc3oc2=O)nc2c(Cl)cc(C(F)(F)F)cn12", "class": "top bin"}
{"compound": "CCN1CCN(c2nc(C)cc(N(CCCNc3ccnc4cc(Cl)ccc34)Cc3ccc4c(c3)OCO4)n2)CC1", "class": "bottom bin"}
